Data provenance is patent US9006450B2.

# target-or-system: human ACC2 (Homo sapiens, UniProt O00763)
# Construct: made in house; host or cells: insect cells (baculoviral expression system)
# Sequence (O00763 129-2458 limits assumed): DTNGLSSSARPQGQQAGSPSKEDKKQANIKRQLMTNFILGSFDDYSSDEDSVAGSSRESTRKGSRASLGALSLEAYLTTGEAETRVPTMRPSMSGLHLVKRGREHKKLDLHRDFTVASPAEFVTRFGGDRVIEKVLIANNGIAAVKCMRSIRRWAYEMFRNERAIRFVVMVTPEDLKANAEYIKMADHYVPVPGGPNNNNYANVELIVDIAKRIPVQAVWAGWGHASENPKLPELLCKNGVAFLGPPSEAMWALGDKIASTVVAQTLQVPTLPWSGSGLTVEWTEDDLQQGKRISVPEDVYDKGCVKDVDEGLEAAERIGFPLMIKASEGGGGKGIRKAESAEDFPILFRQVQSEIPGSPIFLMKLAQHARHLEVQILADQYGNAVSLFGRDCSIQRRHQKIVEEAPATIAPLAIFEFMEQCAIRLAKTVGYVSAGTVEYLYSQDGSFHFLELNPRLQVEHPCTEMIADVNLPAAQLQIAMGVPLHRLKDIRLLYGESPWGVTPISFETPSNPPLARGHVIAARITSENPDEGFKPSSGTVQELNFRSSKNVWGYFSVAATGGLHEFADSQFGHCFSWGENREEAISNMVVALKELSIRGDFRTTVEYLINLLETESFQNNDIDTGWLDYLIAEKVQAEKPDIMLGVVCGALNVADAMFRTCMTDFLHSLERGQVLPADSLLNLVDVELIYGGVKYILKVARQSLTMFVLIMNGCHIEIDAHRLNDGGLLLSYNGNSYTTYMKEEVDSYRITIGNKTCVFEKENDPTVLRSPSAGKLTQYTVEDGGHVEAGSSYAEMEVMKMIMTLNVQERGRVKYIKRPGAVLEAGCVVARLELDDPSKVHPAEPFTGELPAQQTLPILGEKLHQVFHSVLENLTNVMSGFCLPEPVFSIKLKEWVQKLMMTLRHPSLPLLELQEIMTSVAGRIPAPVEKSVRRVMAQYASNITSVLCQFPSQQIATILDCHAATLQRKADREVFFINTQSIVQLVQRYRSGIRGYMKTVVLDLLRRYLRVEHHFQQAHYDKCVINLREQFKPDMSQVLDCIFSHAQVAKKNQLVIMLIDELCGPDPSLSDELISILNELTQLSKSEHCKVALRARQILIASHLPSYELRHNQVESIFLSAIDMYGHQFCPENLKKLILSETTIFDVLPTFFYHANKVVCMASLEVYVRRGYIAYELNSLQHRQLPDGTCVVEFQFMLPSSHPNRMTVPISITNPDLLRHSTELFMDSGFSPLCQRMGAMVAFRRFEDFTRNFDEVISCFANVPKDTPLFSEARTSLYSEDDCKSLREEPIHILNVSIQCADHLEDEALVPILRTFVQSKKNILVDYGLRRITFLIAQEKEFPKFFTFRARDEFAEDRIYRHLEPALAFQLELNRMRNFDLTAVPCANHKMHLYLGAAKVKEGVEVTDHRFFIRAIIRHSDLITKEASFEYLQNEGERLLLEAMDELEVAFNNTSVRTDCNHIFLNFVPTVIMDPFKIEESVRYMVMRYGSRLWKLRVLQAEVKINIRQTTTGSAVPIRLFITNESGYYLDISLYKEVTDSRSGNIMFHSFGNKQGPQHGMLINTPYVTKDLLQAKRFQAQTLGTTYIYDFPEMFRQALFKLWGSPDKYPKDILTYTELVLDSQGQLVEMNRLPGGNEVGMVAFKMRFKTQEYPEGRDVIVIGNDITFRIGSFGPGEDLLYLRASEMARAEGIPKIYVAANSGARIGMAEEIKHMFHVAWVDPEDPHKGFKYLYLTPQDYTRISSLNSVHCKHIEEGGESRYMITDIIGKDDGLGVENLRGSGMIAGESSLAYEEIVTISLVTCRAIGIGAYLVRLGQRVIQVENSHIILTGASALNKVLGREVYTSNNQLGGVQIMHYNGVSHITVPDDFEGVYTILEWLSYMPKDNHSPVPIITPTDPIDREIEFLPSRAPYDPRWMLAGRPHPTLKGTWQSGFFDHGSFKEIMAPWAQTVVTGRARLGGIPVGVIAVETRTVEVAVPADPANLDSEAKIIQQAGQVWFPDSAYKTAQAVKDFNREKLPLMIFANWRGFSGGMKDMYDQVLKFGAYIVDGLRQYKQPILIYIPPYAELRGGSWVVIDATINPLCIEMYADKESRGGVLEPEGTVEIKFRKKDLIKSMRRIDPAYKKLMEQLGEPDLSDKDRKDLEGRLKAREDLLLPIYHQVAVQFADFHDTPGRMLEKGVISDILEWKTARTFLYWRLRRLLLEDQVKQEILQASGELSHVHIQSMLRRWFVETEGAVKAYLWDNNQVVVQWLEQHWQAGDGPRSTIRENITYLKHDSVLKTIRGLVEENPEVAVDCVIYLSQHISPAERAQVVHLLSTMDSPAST
# assay-info: ACC2 assay, spectrophotometric 384 well assay (NADH-linked, coupled lactate dehydrogenase/pyruvate kinase)
# Type: biochemical
# assay-setup: ACC2 assay, hACC2 construct lacking 128 N-terminal amino acids, 25° C., 340 nm; read-out: IC50
pIC50: −log10 of the molar value.
Let's look at some compounds and their measured pIC50.
outcome-measure: pIC50

# compound, outcome-measure, reported-result
data = [
    ("CC(=O)N[C@@H](C)c1ccc(C2CCN(c3ncc(C(=O)N4CCOCC4)cn3)CC2)cc1 [Example 18.94]", "pIC50", 5.66),
    ("CCOc1ncc(N2CCC(c3ccc([C@H](C)NC(=O)N(C)C)cc3)CC2)cn1 [Example 16.7]", "pIC50", 5.85),
    ("CC(=O)N[C@@H](C)c1ccc(C2CCN(c3ccccc3)CC2)cc1 [Example 1.45]", "pIC50", 6.43),
    ("CC(=O)N[C@@H](C)c1ccc(C2CCN(c3ccnc(OC(C)c4ccccc4)c3)CC2)cc1 (some centres unmarked) [Example 19.7]", "pIC50", 6.23),
    ("CCOCC(=O)N[C@@H](C)c1ccc(C2CCN(c3ccc(OCC)cc3)CC2)cc1 [Example 6.17]", "pIC50", 5.72),
    ("CCCN(C)c1nccc(N2CCC(c3ccc([C@H](C)NC(C)=O)cc3)CC2)n1 [Example 11.69]", "pIC50", 6.70),
    ("CC(=O)N[C@@H](C)c1ccc(C2CCN(c3ncc(C(=O)NCc4ccn(C)n4)cn3)CC2)cc1 [Example 18.22]", "pIC50", 4.94),
    ("C=CCOc1ccc(N2CCC(c3ccc([C@H](C)NC(C)=O)cc3)CC2)cc1 [Example 9.22]", "pIC50", 6.80),
]

---

We begin with a simple list: items and their reported log10(IC50).
# target-or-system: human ACC2 (Homo sapiens, UniProt O00763)
# Construct: made in house; host or cells: insect cells (baculoviral expression system)
# assay-info: ACC2 assay, spectrophotometric 384 well assay (NADH-linked, coupled lactate dehydrogenase/pyruvate kinase)
# Assay type: biochemical
# assay-setup: ACC2 assay, hACC2 construct lacking 128 N-terminal amino acids, 25° C., 340 nm; read-out: IC50
outcome-measure: log10(IC50) (log10 of the value in nM)

# compound, target-or-system, reported-result
data = [
    ("C[C@H](NC(=O)N(C)C)c1ccc(C2CCN(c3ccc(OCC4CC4)cc3F)CC2)cc1", "human ACC2 (Homo sapiens, UniProt O00763)", 2.26),
    ("COc1cc(C)c(N2CCC(c3ccc([C@H](C)NC(C)=O)cc3)CC2)cn1", "human ACC2 (Homo sapiens, UniProt O00763)", 2.86),
    ("CCC(C)Oc1ccc(N2CCC(c3ccc([C@H](C)NC(=O)OC)cc3)CC2)cc1 (some centres unmarked) [Example 1.15]", "human ACC2 (Homo sapiens, UniProt O00763)", 2.38),
    ("CC(=O)N[C@@H](C)c1ccc(C2CCN(c3ccnc(NC4CC4)n3)CC2)cc1", "human ACC2 (Homo sapiens, UniProt O00763)", 3.18),
    ("CCOc1ccc(N2CCC(c3ccc([C@H](C)NC(=O)NCc4ccncn4)cc3)CC2)cc1", "human ACC2 (Homo sapiens, UniProt O00763)", 3.32),
    ("CCOc1ccc(N2CCC(c3ccc([C@H](C)NC(=O)N(C)C4CC4)cc3)CC2)cc1", "human ACC2 (Homo sapiens, UniProt O00763)", 3.58),
    ("CCCCOc1ccc(N2CCC(c3ccc([C@H](C)NC(C)=O)cc3)CC2)cc1F", "human ACC2 (Homo sapiens, UniProt O00763)", 1.95),
    ("CC(=O)N[C@@H](C)c1ccc(C2CCN(c3ccc(-c4cccs4)nc3)CC2)cc1", "human ACC2 (Homo sapiens, UniProt O00763)", 2.20),
    ("CC(=O)N[C@@H](C)c1ccc(C2CCN(c3ncc(-c4nc5ccccc5[nH]4)cn3)CC2)cc1", "human ACC2 (Homo sapiens, UniProt O00763)", 2.46),
    ("CCOc1ccc(N2CCC(c3ccc([C@H](C)NC(C)=O)cc3)CC2)nn1", "human ACC2 (Homo sapiens, UniProt O00763)", 3.48),
    ("CC(=O)N[C@@H](C)c1ccc(C2CCN(c3cccc(OCC(C)C)c3)CC2)cc1", "human ACC2 (Homo sapiens, UniProt O00763)", 2.60),
    ("CCCOc1ccc(N2CCC(c3ccc([C@H](C)NC(C)=O)cc3)CC2)c(OC)c1", "human ACC2 (Homo sapiens, UniProt O00763)", 2.26),
    ("CCNc1cc(N2CCC(c3ccc([C@H](C)NC(C)=O)cc3)CC2)ncn1", "human ACC2 (Homo sapiens, UniProt O00763)", 3.89),
    ("CC(=O)N[C@@H](C)c1ccc(C2CCN(c3ccnc(OC4CCC4)n3)CC2)cc1", "human ACC2 (Homo sapiens, UniProt O00763)", 2.36),
    ("CC(=O)N[C@@H](C)c1ccc(C2CCN(c3ccnc(Nc4cncnc4)n3)CC2)cc1", "human ACC2 (Homo sapiens, UniProt O00763)", 3.63),
    ("CC(=O)N[C@@H](C)c1ccc(C2CCN(c3ncc(C(=O)Nc4ccccc4F)cn3)CC2)cc1", "human ACC2 (Homo sapiens, UniProt O00763)", 2.41),
    ("CC(=O)N[C@@H](C)c1ccc(C2CCN(c3ncc(C(=O)NCC4CCN(c5ccccc5)C4)cn3)CC2)cc1 (some centres unmarked)", "human ACC2 (Homo sapiens, UniProt O00763)", 4.37),
    ("CC(=O)N[C@@H](C)c1ccc(C2CCN(c3cccc(OC(C)C)c3)CC2)cc1", "human ACC2 (Homo sapiens, UniProt O00763)", 2.20),
    ("CC(=O)N[C@@H](C)c1ccc(C2CCN(c3ncc(-c4cccs4)cn3)CC2)cc1", "human ACC2 (Homo sapiens, UniProt O00763)", 1.60),
    ("CCOc1ccc(N2CCC(c3ccc([C@H](C)NC(C)=S)cc3)CC2)cc1", "human ACC2 (Homo sapiens, UniProt O00763)", 2.63),
    ("CCCOc1ccc(N2CCC(c3ccc([C@H](C)NC(C)=O)cc3)CC2)cc1F", "human ACC2 (Homo sapiens, UniProt O00763)", 2.30),
    ("CCOc1ccnc(N2CCC(c3ccc([C@H](C)NC(C)=O)cc3)CC2)c1", "human ACC2 (Homo sapiens, UniProt O00763)", 2.90),
    ("CC(=O)N[C@@H](C)c1ccc(C2CCN(c3cccc(OCC4CCOCC4)c3)CC2)cc1", "human ACC2 (Homo sapiens, UniProt O00763)", 2.76),
    ("CCOc1ccc(N2CCC(c3ccc([C@H](C)NC(=O)NCc4cncnc4)cc3)CC2)cc1", "human ACC2 (Homo sapiens, UniProt O00763)", 4.12),
    ("COc1ccc(N2CCC(c3ccc([C@H](C)NC(C)=O)cc3)CC2)cc1", "human ACC2 (Homo sapiens, UniProt O00763)", 2.36),
    ("CCOc1ccc(-c2cnc(N3CCC(c4ccc([C@H](C)NC(C)=O)cc4)CC3)nc2)cn1", "human ACC2 (Homo sapiens, UniProt O00763)", 3.48),
    ("CCOc1ccc(-c2cc(N3CCC(c4ccc([C@H](C)NC(C)=O)cc4)CC3)ncn2)cc1", "human ACC2 (Homo sapiens, UniProt O00763)", 3.49),
    ("CC(=O)N[C@@H](C)c1ccc(C2CCN(c3ccnc(OCc4ccon4)c3)CC2)cc1", "human ACC2 (Homo sapiens, UniProt O00763)", 2.96),
    ("COc1ccc(N2CCC(c3ccc([C@H](C)NC(C)=O)cc3)CC2)cc1OC", "human ACC2 (Homo sapiens, UniProt O00763)", 3.61),
    ("CC(=O)N[C@@H](C)c1ccc(C2CCN(c3ncc(C(=O)Nc4ccccc4)cn3)CC2)cc1", "human ACC2 (Homo sapiens, UniProt O00763)", 2.28),
    ("CCOc1ccc(N2CCC(c3ccc(C(CC)NC(C)=O)cc3)CC2)c(F)c1 (centres unmarked)", "human ACC2 (Homo sapiens, UniProt O00763)", 3.71),
    ("COC(=O)c1cccc(N2CCC(c3ccc([C@H](C)NC(C)=O)cc3)CC2)c1", "human ACC2 (Homo sapiens, UniProt O00763)", 2.54),
]
